Assay: fluorescence excitation/emission and quantum yield of benzo[c]xanthene dyes
Type: physicochemical
Details: base form
Items are presented alongside their recorded FLUORESCENCE, BASE EXCITE.
EXPERIMENTAL READOUT: FLUORESCENCE, BASE EXCITE (NM)

{"COMPOUND": "CCN(CC)c1ccc2c(c1)Oc1c(ccc3cc(O)ccc13)C21OC(=O)c2ccc(C(=O)O)cc21 (stereo not shown)", "EXPERIMENTAL READOUT": "FLUORESCENCE, BASE EXCITE", "MEASUREMENT UNIT": "NM", "REPORTED RESULT": 582}
{"COMPOUND": "CN(C)c1ccc2c(c1)Oc1c(ccc3cc(O)ccc13)C21OC(=O)c2ccccc21 (stereo not shown)", "EXPERIMENTAL READOUT": "FLUORESCENCE, BASE EXCITE", "MEASUREMENT UNIT": "NM", "REPORTED RESULT": 582}
{"COMPOUND": "CCN(CC)c1ccc2c(c1)Oc1c(ccc3cc(O)ccc13)C21OC(=O)c2ccccc21 (stereo not shown)", "EXPERIMENTAL READOUT": "FLUORESCENCE, BASE EXCITE", "MEASUREMENT UNIT": "NM", "REPORTED RESULT": 582}
{"COMPOUND": "O=C1OC2(c3ccc(O)cc3Oc3c2ccc2cc(O)ccc32)c2ccccc21 (stereo not shown)", "EXPERIMENTAL READOUT": "FLUORESCENCE, BASE EXCITE", "MEASUREMENT UNIT": "NM", "REPORTED RESULT": 540}

====

Assay: absorption spectra (maxima and extinction coefficients) of benzo[c]xanthene dyes
Type: physicochemical
Settings: acid form, shorter-wavelength maximum
EXPERIMENTAL READOUT: EXTINCTION COEFFICIENT, ACID MAXIMA (first)

{"MOLECULE": "CN(C)c1ccc2c(c1)Oc1c(ccc3cc(O)ccc13)C21OC(=O)c2ccccc21 (stereo not shown)", "REPORTED RESULT": "17.7 10^3 cm^-1 M^-1"}
{"MOLECULE": "CCN(CC)c1ccc2c(c1)Oc1c(ccc3cc(O)ccc13)C21OC(=O)c2ccccc21 (stereo not shown)", "REPORTED RESULT": "20.5 10^3 cm^-1 M^-1"}
{"MOLECULE": "O=C1OC2(c3ccc(O)cc3Oc3c2ccc2cc(O)ccc32)c2ccccc21 (stereo not shown)", "REPORTED RESULT": "24.8 10^3 cm^-1 M^-1"}
{"MOLECULE": "CN(C)c1ccc2c(c1)Oc1c(ccc3cc(O)ccc13)C21OC(=O)c2cc(C(=O)O)ccc21 (stereo not shown)", "REPORTED RESULT": "23.2 10^3 cm^-1 M^-1"}
{"MOLECULE": "O=C(O)c1ccc2c(c1)C(=O)OC21c2cc3c4c(c2Oc2c1ccc1cc(O)ccc21)CCCN4CCC3 (stereo not shown)", "REPORTED RESULT": "22.2 10^3 cm^-1 M^-1"}
{"MOLECULE": "CCN(CC)c1ccc2c(c1)Oc1c(ccc3cc(O)ccc13)C21OC(=O)c2ccc(C(=O)O)cc21 (stereo not shown)", "REPORTED RESULT": "26.2 10^3 cm^-1 M^-1"}
{"MOLECULE": "O=C(O)c1ccc2c(c1)C1(OC2=O)c2cc(Cl)c(O)cc2Oc2c1ccc1cc(O)ccc21 (stereo not shown)", "REPORTED RESULT": "20.5 10^3 cm^-1 M^-1"}

Source: patent US4945171A
